Hey, just so you know, these numbers are from ChEMBL document CHEMBL3044612.

# measurement_notes: Selectivity index, ratio of IC50 for human K562 cells to IC50 for chloroquine-sensitive Plasmodium falciparum 3D7
# Type: toxicity, cell-based
# experimental_context: read-out: Ratio IC50
// reported selectivity ratio per item
Form field (numeric): enter value without unit.

The examples below pair each entry with its known result.
1. COc1ccc(/C=C/C(=O)c2c(O)c3ccccc3oc2=O)cc1OC	11.5
2. O=C(/C=C/c1ccc(Cl)cc1)c1c(O)c2ccccc2oc1=O	6.29
3. O=C(/C=C/c1ccccc1)c1c(O)c2ccccc2oc1=O	4.49
4. COc1ccc(/C=C/C(=O)c2c(O)c3ccccc3oc2=O)c(OC)c1OC	5.48
5. CN(C)c1ccc(/C=C/C(=O)c2c(O)c3ccccc3oc2=O)cc1	9.1
6. O=C(/C=C/c1cccc([N+](=O)[O-])c1)c1c(O)c2ccccc2oc1=O	9.72

**Query** Quickly give me recorded selectivity ratio for `O=C(/C=C/c1ccc([N+](=O)[O-])cc1)c1c(O)c2ccccc2oc1=O`
**Result** 49.7

###

# System: Plasmodium falciparum
# measurement_notes: Antimalarial activity against chloroquine-resistant Plasmodium falciparum W2 by in vitro cell culture method
# Type: functional, organism-based
measurement_type: IC50 (µg/mL)
Please give a number only; it is taken to be in µg/mL.

The examples below pair each entry with its known result.
1. O=C(/C=C/c1cccc([N+](=O)[O-])c1)c1c(O)c2ccccc2oc1=O	54.1
2. Cc1ccc(/C=C/C(=O)c2c(O)c3ccccc3oc2=O)cc1	5.1
3. COc1ccc(/C=C/C(=O)c2c(O)c3ccccc3oc2=O)cc1OC	22
4. COc1ccc(/C=C/C(=O)c2c(O)c3ccccc3oc2=O)c(OC)c1OC	56.1
5. O=C(/C=C/c1ccc(Cl)cc1)c1c(O)c2ccccc2oc1=O	6.5

**Query** Quickly give me recorded IC50 for `COc1ccc(/C=C/C(=O)c2c(O)c3ccccc3oc2=O)cc1`
**Result** 35.8

**Query** Quickly give me recorded IC50 for `O=C(/C=C/c1cccc(Cl)c1)c1c(O)c2ccccc2oc1=O`
**Result** 6.2

**Query** Quickly give me recorded IC50 for `CN(C)c1ccc(/C=C/C(=O)c2c(O)c3ccccc3oc2=O)cc1`
**Result** 68.2

**Query** Quickly give me recorded IC50 for `O=C(/C=C/c1ccc([N+](=O)[O-])cc1)c1c(O)c2ccccc2oc1=O`
**Result** 4

**Query** Quickly give me recorded IC50 for `COc1cc(/C=C/C(=O)c2c(O)c3ccccc3oc2=O)ccc1O`
**Result** 61.3

**Query** Quickly give me recorded IC50 for `O=C(/C=C/c1ccccc1)c1c(O)c2ccccc2oc1=O`
**Result** 11

###

# measurement_notes: Selectivity index, ratio of IC50 for human K562 cells to IC50 for chloroquine-resistant Plasmodium falciparum W2
# Type: toxicity, cell-based
# experimental_context: read-out: Ratio IC50
# if measured selectivity ratio < 3: 1.0  # else: 0.0

The examples below pair each entry with its known result.
1) O=C(/C=C/c1ccc(Cl)cc1)c1c(O)c2ccccc2oc1=O	0.0
2) O=C(/C=C/c1cccc([N+](=O)[O-])c1)c1c(O)c2ccccc2oc1=O	1.0
3) CN(C)c1ccc(/C=C/C(=O)c2c(O)c3ccccc3oc2=O)cc1	1.0
4) COc1ccc(/C=C/C(=O)c2c(O)c3ccccc3oc2=O)cc1OC	0.0
5) O=C(/C=C/c1ccccc1)c1c(O)c2ccccc2oc1=O	0.0

**Query** Please check: selectivity ratio for `COc1ccc(/C=C/C(=O)c2c(O)c3ccccc3oc2=O)c(OC)c1OC` , strictly under 3 or not?
**Result** 1.0

**Query** Please check: selectivity ratio for `O=C(/C=C/c1ccc([N+](=O)[O-])cc1)c1c(O)c2ccccc2oc1=O` , strictly under 3 or not?
**Result** 0.0
